These entries and their values trace back to the RNAGym collection of RNA variant scans (doi:10.7554/elife.80360).

B1: HDV Ribozyme (parent)
chain: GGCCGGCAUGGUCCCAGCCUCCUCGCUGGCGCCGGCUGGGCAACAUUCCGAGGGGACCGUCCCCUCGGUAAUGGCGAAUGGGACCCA

Variants of: B1
Assay explanation: self-cleavage, relative activity (ratio to wild type); higher = more cleavage; co-transcriptional
Entry class follows self-cleavage: lower range = under 0.3, middle range = from 0.3 up to 0.5, upper range = 0.5 and over

Below, 5 variants whose answers are already recorded.
Input sequence	Group label
GGCCGACAUGGUCCCAGCCUCCUCGCUGGCGCAGGCUGGGCAACAUUCCGAGGGGACCGUCCCCUCGGUAAUGGCGAAUGGGACCCA [G6A C33A]	lower range
GGCCGGCAUGGUCACAGCCUCCUCGCUGGCGCCGGCUGGGCAACAUUCCGAGGGGACCGUCCCCUCGGUAAUGGCGAAUGGGGCCCA [C14A A83G]	middle range
GGCCGGCAUGGUCCCAGCCUCCUCGCUGGCGCCGGCUGGGCAACAUUCCGAGGGGACCGGCCCCUCGGUUAUGGCGAAUGGGACCCA [U60G A70U]	upper range
GGCCUGCAUGGUCCCAGCCUCCUCGCUGGCGCCGGCUGGGCAACAUUCCGAGGGGACCGUCCCCUCGGUAACGGCGAAUGGGACCCA [G5U U72C]	lower range
GGCCGGCAUGGUCCCAGCCUCCUCGCUGGCGCCGGCUGGGCUACAUUCCGAGGGGACCGUCCCCUCGGAAAUGGCGAAUGGGACCCA [A42U U69A]	middle range

Data request: Hey, which category is GGCCGGCAUGGUCCCAGCCUCCUCGAUGGCGCCGGCUGGGCAACAUUCCGAGGGGACCGUCCCCUCGGUAACGGCGAAUGGGACCCA [C26A U72C] in, do you know?
Data returned: upper range

Data request: Hey, which category is UGCCGGCAUGGUCCCAGCCUCCUCGCUGGCGCCGGCUGGGCAACAUUCCGAGGGGACCGUCCCAUCGGUAAUGGCGAAUGGGACCCA [G1U C64A] in, do you know?
Data returned: middle range

Data request: Hey, which category is GGCCGGCAUGGUCCCAGCCUCCUCGCUGGCGUCGGCUGGGCAACAUUCCGAGGGGACCGUCCCCUCGGUAAUGGCCAAUGGGACCCA [C32U G76C] in, do you know?
Data returned: upper range

Data request: Hey, which category is GGUCGGCAUGGUCCCAGCCUCCUCGCUGGCGCCGGCUGGGCAACAUUCCGCGGGGACCGUCCCCUCGGUAAUGGCGAAUGGGACCCA [C3U A51C] in, do you know?
Data returned: upper range

Data request: Hey, which category is GGCCGCCAUGGUCCCAGCCUCCUCGCUGGCGCCGGCUGGGCAACUUUCCGAGGGGACCGUCCCCUCGGUAAUGGCGAAUGGGACCCA [G6C A45U] in, do you know?
Data returned: lower range
